Give Population Hoechst High Intensity Objects (%) for every item shown.
test system: Fibroblast; assay: Multiplex assay against human fibroblast; type: toxicity, cell-based; details: 24 h, 1 µM, compound concentration 1 uM
Answers are plain numbers, in %.

| smiles_representation | tgt | measurement_unit | measurement |
| --- | --- | --- | --- |
| CCN1CCN(Cc2ccc(Nc3ncc(F)c(-c4cc(F)c5nc(C)n(C(C)C)c5c4)n3)nc2)CC1.CS(=O)(=O)O | Fibroblast | % | 0 |
| COc1ccc2nc3ccc(OC)cc3c(SCCCN)c2c1.Cl | Fibroblast | % | 0 |
| CC/C(=C(\c1ccc(O)cc1)c1ccc(OCCN(C)C)cc1)c1ccccc1 | Fibroblast | % | 0 |
| O=C1N=C(NCc2cccs2)S/C1=C\c1ccc2ncccc2c1 | Fibroblast | % | 0 |

Asked: Looking for the measured Population Hoechst High Intensity Objects (%) of CN1CCC(C(=O)c2cccc(NC(=O)c3c(F)cc(F)cc3F)n2)CC1 , can you help?
Given back: 1

---

system: U2OS; experiment: Multiplex assay against U2OS; format: toxicity, cell-based; settings: human, 12 h, 1 µM, compound concentration 1 uM
measured_property: Population Hoechst High Intensity Objects (%)
Answers are plain numbers, in %.

Completed entries (count: 5):
| compound | measurement |
| --- | --- |
| O=C1N=C(NCc2cccs2)S/C1=C\c1ccc2ncccc2c1 | 0 |
| O=c1cccc2n1C[C@@H]1CNC[C@H]2C1 | 0 |
| CC(C)Oc1ccc(F)c(-c2cnc(N)c(C(=O)Nc3cnccc3N3CCC[C@@H](C(=O)O)C3)n2)c1 | 0 |
| COCCn1c(C)c(C)s/c1=N\C(=O)C1C(C)(C)C1(C)C | 0 |
| N[C@](CC1c2ccccc2Oc2ccccc21)(C(=O)O)[C@H]1C[C@@H]1C(=O)O | 1 |

Need Population Hoechst High Intensity Objects (%) for each of these compounds.
1. C[C@@H]1CC(=O)Nc2cccc(-c3ccc4c(c3)c(-c3cnn(C)c3)nn4C)c2N1
2. COc1ccc2nc3ccc(OC)cc3c(SCCCN)c2c1.Cl
3. Cn1cnc(-c2cnc(O[C@H]3CCN(C(=O)Cc4ccc(OC(F)(F)F)cc4)C[C@H]3F)c(C(N)=O)c2)c1
4. CN1CCN2c3ncccc3Cc3ccccc3C2C1 (configuration not stated)
5. CC/C(=C(\c1ccc(O)cc1)c1ccc(OCCN(C)C)cc1)c1ccccc1

Given back:
1
0
0
1
0

For each of the items listed, what is its Population Hoechst High Intensity Objects (%)?
1. O=C1NCc2ccc3c(-c4cccc(Cl)c4)c[nH]c3c21
2. CC(C)c1ccc(/C=N/NC(=O)c2ccc(O)cc2)cc1

Given back:
0
0

---

tested on: HEK-293T; assay: Multiplex assay against HEK293T; type: toxicity, cell-based; settings: human, 24 h, 1 µM, compound concentration 1 uM
Assignment: determine reported Population Normal (%) for the given molecules.
Give bare numbers, in %.

| molecule | Population Normal (%) |
| --- | --- |
| CN(C)CCCc1cc(C(=O)Nc2ccc(-c3ccncc3)cc2)ccc1O.Cl.Cl | 94 |
| O=C1NCc2ccc3c(-c4cccc(Cl)c4)c[nH]c3c21 | 100 |

# input for lookup
Asked: # input molecule: c1ccc2nc(N3CCNCC3)ccc2c1 [QUIPAZINE] ; wanted: its Population Normal (%)
Given back: 100
